Selectivity against PKG overview
# study_target: recombinant human PKG1-beta (Homo sapiens)
# Construct: PKG1-beta (full-length, with N-terminal His-tag); His-tag (N); purchased Millipore GmbH, Schwalbach, Germany
# Sequence (Q13976 1-686 isoform Q13976-2): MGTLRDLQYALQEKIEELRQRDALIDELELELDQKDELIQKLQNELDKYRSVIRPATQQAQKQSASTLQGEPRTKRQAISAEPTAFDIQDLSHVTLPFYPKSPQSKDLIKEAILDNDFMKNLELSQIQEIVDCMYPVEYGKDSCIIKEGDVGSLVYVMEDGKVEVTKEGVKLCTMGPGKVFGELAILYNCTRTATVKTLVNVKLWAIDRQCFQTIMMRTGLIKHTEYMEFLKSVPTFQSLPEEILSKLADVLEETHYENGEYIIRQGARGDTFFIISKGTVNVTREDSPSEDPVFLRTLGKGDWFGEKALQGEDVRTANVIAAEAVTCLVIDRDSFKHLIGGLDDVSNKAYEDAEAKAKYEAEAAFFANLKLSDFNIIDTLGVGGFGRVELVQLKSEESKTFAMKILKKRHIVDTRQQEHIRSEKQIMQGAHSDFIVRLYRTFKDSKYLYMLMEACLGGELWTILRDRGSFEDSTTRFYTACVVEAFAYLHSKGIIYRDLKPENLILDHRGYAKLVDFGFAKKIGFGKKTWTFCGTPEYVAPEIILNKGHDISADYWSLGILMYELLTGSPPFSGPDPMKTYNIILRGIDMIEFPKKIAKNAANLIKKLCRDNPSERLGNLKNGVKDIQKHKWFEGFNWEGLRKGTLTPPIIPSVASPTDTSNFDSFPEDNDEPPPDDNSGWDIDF
# assay_explanation: Determination of Protein Kinase G inhibition (selectivity)
# Type: biochemical
# cond: from IC50 values

>  <molecule>
CCC(N)C1(CC(C)C)CCC(Oc2cc3cc[nH]c(=O)c3cc2Cl)CC1 (single isomer, unassigned)

>  <Selectivity against PKG>
>10 fold

$$$$
>  <molecule>
CC[C@]1(C(C)N)CC[C@@H](Oc2cc3cc[nH]c(=O)c3cc2F)CC1 (stereo partly drawn)

>  <Selectivity against PKG>
>100 fold

$$$$
>  <molecule>
CCC(N)[C@]1(CC)CC[C@H](Oc2c(C)cc3c(=O)[nH]ccc3c2C)CC1 (stereo partly drawn)

>  <Selectivity against PKG>
>10 fold

$$$$
>  <molecule>
CCCC1(C(N)C2CC2)CCC(Oc2cc3cc[nH]c(=O)c3cc2Cl)CC1 (single isomer, unassigned) [Example 6]

>  <Selectivity against PKG>
>1000 fold

$$$$
>  <molecule>
CCC(N)[C@]1(CC)CC[C@H](Oc2cc3cc[nH]c(=O)c3cc2F)CC1 (stereo partly drawn)

>  <Selectivity against PKG>
>10 fold

$$$$

Need Selectivity against PKG of CCC(N)C1(C2CCOCC2)CCC(Oc2cc3cc[nH]c(=O)c3cc2Cl)CC1 (single isomer, unassigned) , thanks.
>1000 fold

Cool, now CC[C@]1(C(C)N)CC[C@@H](Oc2cc3cc[nH]c(=O)c3cc2C)CC1 (stereo partly drawn)
>100 fold

Follow-up item: CCC(N)[C@]1(CC)CC[C@H](Oc2cc3cc[nH]c(=O)c3cc2C)CC1 (stereo partly drawn)
>10 fold

Continue with NC(C1CC1)[C@]1(CCCC(F)(F)F)CC[C@H](Oc2cc3cc[nH]c(=O)c3cc2Cl)CC1 (stereo partly drawn)
>300 fold

Query CCC(N)C1(CC2CC2)CCC(Oc2cc3cc[nH]c(=O)c3cc2Cl)CC1 (single isomer, unassigned) [Example 13] next
>10 fold

What about this molecule? CCCC(N)C1(CC2CC2)CCC(Oc2cc3cc[nH]c(=O)c3cc2Cl)CC1 (single isomer, unassigned) [Example 15]
>10 fold

And then CCC1(C(C)N)CCC(Oc2cc3cc[nH]c(=O)c3cc2Cl)CC1 (single isomer, unassigned) [Example 4] , what is it?
>100 fold

How about CC[C@]1(C(N)C2CC2)CC[C@@H](Oc2cc3cc[nH]c(=O)c3cc2Cl)CC1 (stereo partly drawn) ?
>1000 fold

What about C[C@]1(C(N)C2CC2)CC[C@@H](Oc2cc3cc[nH]c(=O)c3cc2Cl)CC1 (stereo partly drawn) ?
>300 fold

// next record CCCC[C@]1(C(N)CC)CC[C@@H](Oc2cc3cc[nH]c(=O)c3cc2Cl)CC1 (stereo partly drawn)
>300 fold

====

Measured pIC50 by item
# study_target: human recombinant ROCK II (Homo sapiens)
# Construct: recombinant human ROCK-II residues 11-552; His6 (N)
# Sequence (O75116 11-552): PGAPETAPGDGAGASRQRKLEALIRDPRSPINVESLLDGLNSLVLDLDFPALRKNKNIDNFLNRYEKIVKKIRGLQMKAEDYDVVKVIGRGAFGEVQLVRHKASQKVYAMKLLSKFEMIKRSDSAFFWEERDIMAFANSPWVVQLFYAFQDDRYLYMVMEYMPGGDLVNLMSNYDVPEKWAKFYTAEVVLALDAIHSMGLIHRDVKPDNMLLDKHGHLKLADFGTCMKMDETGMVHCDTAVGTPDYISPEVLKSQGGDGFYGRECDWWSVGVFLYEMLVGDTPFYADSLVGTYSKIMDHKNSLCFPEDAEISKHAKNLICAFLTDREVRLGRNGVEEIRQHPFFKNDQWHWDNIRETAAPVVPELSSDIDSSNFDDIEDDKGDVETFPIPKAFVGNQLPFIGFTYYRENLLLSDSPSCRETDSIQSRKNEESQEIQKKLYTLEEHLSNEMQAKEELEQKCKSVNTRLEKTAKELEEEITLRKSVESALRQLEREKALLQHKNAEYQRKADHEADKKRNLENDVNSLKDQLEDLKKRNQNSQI
# assay_explanation: Determination of Rho kinase inhibition (ROCK II, Caliper peptide phosphorylation assay)
# cond: respective form (salt or free base) as obtained in the examples, 60 min at 32° C.
# Description: To measure Rho-kinase inhibition, IC50 values were determined according to the following protocol: Active human recombinant ROCK II (N-terminal His6-tagged recombinant human ROCK-II residues 11-552) was purchased from Millipore GmbH, Schwalbach, Germany. […] Phosphorylation of the substrate peptide was then detected on a Caliper 3000 instrument essentially as described by Pommereau et al (J. Biomol. Screening 2004, 9(5), 409-416). […]
pIC50: −log10 of the molar value.

Examples with answers:
>  <compound>
CCC(N)C1(COC(C)C)CCC(Oc2cc3cc[nH]c(=O)c3cc2Cl)CC1 (single isomer, unassigned) [Example 19]

>  <study_target>
human recombinant ROCK II (Homo sapiens)

>  <pIC50>
7.00 to 8.00

$$$$
>  <compound>
CCC(N)C1(C(C)C)CCC(Oc2cc3cc[nH]c(=O)c3cc2Cl)CC1 (single isomer, unassigned) [Example 9]

>  <study_target>
human recombinant ROCK II (Homo sapiens)

>  <pIC50>
7.00 to 8.00

$$$$
>  <compound>
CCC[C@]1(C(C)N)CC[C@@H](Oc2cc3ccnc(N)c3cc2Cl)CC1 (stereo partly drawn)

>  <study_target>
human recombinant ROCK II (Homo sapiens)

>  <pIC50>
6.00 to 7.00

$$$$
>  <compound>
CCC(N)C1(CC)CCC(Oc2cc3cc[nH]c(=O)c3cc2Cl)CC1 (single isomer, unassigned)

>  <study_target>
human recombinant ROCK II (Homo sapiens)

>  <pIC50>
≥ 8.00

$$$$
>  <compound>
CCC(N)[C@]1(CC)CC[C@H](Oc2c(C)cc3c(=O)[nH]ccc3c2C)CC1 (stereo partly drawn)

>  <study_target>
human recombinant ROCK II (Homo sapiens)

>  <pIC50>
6.00 to 7.00

$$$$

Return reported pIC50; argument: NC(C1CC1)[C@]1(C2CC2)CC[C@H](Oc2cc3cc[nH]c(=O)c3cc2Cl)CC1 (stereo partly drawn)
≥ 8.00

Entry to check: CCC(N)[C@]1(C)CC[C@H](Oc2cc3cc[nH]c(=O)c3cc2Cl)CC1 (mixture of isomers)
≥ 8.00

Quick one: C[C@]1(C(N)C2CC2)CC[C@@H](Oc2cc3cc[nH]c(=O)c3cc2Cl)CC1 (stereo partly drawn)
≥ 8.00

What would you report for CCC(N)C1(C2CCC2)CCC(Oc2cc3cc[nH]c(=O)c3cc2Cl)CC1 (single isomer, unassigned) [Example 22] ?
7.00 to 8.00

Entry to check: CCCC(N)[C@]1(C)CC[C@H](Oc2cc3cc[nH]c(=O)c3cc2Cl)CC1 (stereo partly drawn)
≥ 8.00

Data origin: patent US8399482B2
